Reported Reactivity (OD 492 nm) by item:
target: bovine serum albumin (bovine) (UniProt P02769); assay: EIA, BSA control
Sequence (P02769 25-607 limits assumed): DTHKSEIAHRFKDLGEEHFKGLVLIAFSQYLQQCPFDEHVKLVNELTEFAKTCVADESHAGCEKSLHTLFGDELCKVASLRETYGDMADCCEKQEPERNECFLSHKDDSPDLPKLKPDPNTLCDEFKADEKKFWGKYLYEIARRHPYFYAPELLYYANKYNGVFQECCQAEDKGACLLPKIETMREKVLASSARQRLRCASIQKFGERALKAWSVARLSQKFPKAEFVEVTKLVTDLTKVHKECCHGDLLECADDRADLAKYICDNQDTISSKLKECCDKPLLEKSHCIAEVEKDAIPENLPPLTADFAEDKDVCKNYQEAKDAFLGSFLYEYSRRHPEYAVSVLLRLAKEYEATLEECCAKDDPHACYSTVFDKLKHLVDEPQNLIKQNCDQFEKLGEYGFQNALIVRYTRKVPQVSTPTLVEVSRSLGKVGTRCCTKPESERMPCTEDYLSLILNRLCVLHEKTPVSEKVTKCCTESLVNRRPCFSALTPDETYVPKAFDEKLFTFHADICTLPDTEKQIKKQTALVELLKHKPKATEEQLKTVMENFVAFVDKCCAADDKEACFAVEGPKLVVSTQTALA
Endpoint Name: Reactivity (OD 492 nm) (OD units)

Binder | Endpoint Name | Recorded Result
HCV 208B-178 (antibody, V domains shown) VH: DVKLVESGGGLVKLGGSLKLSCAASGFTFSSYYMSWVRQTPEKRLELVAAINSNGGSTYYPDTVKGRFTISRDNAKNTLYLQMSSLKSEDTALYYCARHGGLGRRDWYFDVWGAGTTVTVSS VL: DIVLTQSPASLAVSLGQRATISCRASESVDNYGISFMHWYQQKPGQPPKLLIYRASNLESGIPARFSGSGSRTDFTLTINPVETDDVATYYCQQSNKDPFTFGSGAKLEIKR | Reactivity (OD 492 nm) | 0.07
HCV 208B-353 (antibody, V domains shown) VH: EVQLVESGGDLVKPGGSLKLSCAASGFTFNHYGMSWVRQPPDKRLEWVATISSGGGYTYYPDSVKGRFTISRDNAKDTLSLQMSSLRSGDTAVYYCASLYGSLFAYWGQGTLVTVSA VL: DIVMTQSQKFMSTTVGDRVRVTCKASQNVGTAVAWYQQKPGQSPKLLIYSASNRYTGVPDRFTGSGSGTDFTLTITNMQSEDLADYFCQQYSTYPLTFGSGAKLEIKR | Reactivity (OD 492 nm) | 0.07
HCV 208B-408 (antibody, V domains shown) VH: EVKLVESGGGLVQPGGSLRLSCASSGFTFTDYYMSWVRQPPGKALEWLGFIRNKAYGYTTEFSASVNGRFTISRDDSQSVPYLQMNTLRAEDSATYYCARVLYYDYGGFAYWGQGTLVTVST VL: DIQMTQSPASLSASVGETVTITCRASGNIHTYLAWYQQKQGKSPQLLVYNANTLADGVPSRFSGSGSGTQFSLKINSLQPDDFGSYYCQHFWSAPWTFGGGTQLEIKR | Reactivity (OD 492 nm) | 0.06
